percentage of input antibody bound overview
- TESTED TARGET: T1, human glycophorin A on human red blood cells or red blood cell membranes (human, UniProt P02724 20-150)
- T1 construct: whole, on cells; also called hRBC; human RBC membranes
- T1 sequence (looked up): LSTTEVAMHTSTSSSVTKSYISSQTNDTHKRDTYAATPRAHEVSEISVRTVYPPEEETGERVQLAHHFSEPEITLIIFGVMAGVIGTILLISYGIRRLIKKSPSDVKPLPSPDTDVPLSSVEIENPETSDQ
- METHOD: Fab on intact human RBC, unbound Fab by ELISA; 0 min after 200-fold dilution
Form field: result (number plus unit)

Please review the following examples before continuing.
TPP-7795, affinity matured 6C12 Fab (Fab, V domains shown, Tested as Fab) VH: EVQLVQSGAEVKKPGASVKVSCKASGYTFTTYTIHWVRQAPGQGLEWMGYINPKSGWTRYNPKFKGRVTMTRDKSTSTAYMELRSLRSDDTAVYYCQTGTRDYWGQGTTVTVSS VL: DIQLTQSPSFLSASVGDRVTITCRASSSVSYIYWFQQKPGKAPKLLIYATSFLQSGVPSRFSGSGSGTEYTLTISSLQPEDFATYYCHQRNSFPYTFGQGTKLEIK :: 86%
TPP-7790, affinity matured 6C12 Fab (Fab, V domains shown, Tested as Fab with a 6xHIS tag) VH: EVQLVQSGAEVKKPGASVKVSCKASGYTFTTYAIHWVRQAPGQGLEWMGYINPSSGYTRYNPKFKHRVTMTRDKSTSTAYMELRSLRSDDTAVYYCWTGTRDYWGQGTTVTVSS VL: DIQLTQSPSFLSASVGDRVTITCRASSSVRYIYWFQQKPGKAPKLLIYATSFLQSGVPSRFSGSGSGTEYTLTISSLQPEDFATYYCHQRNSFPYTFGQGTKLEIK :: 88%

API: the following record is the query input.
The binder listed as TPP-7797, affinity matured 6C12 Fab (Fab, V domains shown, Tested as Fab) VH: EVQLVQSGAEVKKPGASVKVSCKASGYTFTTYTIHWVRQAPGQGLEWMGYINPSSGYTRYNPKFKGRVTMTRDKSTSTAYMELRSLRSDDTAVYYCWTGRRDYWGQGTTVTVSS VL: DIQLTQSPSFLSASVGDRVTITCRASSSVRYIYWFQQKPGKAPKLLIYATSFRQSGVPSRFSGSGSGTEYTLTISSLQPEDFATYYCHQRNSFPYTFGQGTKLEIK shows percentage of input antibody bound equal to 96%
